Biological target: (human YRDC, ΔN43) (Homo sapiens, UniProt Q86U90, A84V)
Construct: lacks first 43 residues (N-terminal truncation); N-terminal His6 tag removed with TEV; E. coli BL21(DE3); homodimer
Sequence (Q86U90 44-279 A84V): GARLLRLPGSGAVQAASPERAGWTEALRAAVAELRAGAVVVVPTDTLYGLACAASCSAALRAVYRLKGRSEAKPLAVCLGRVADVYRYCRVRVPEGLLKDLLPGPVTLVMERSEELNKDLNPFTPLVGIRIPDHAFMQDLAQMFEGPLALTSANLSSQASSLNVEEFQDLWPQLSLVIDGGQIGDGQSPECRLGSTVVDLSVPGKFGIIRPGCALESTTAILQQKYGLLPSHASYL
Assay: biochemical
Design: SYPRO Orange DSF; apparent Kd from Tm versus ligand concentration
Settings: With ATP and L-threonine; DSF apparent KD
pKd: −log10 of the molar value.
quantity-kind: pKd

compound="O=C(O)O [bicarbonate]" recorded_value=2.19
